This collection of values is drawn from ChEMBL document CHEMBL1201862.

test system: SF-539; test: NCI tumour cell line growth inhibition, 48 h
Calls of active or inactive are those of the source. No stated cut-off is given here; in the data, active = GI50 up to about 1.1 µM and inactive = higher.
Outcome field: choose from 1.0 = active, 0.0 = inactive

So what was the verdict on Oc1cc(-c2ccc(Cl)cc2)cn2c1nc1ccccc12 in this test?
0.0

So what was the verdict on CN(C)c1ccc(/C=C2\C[C@H]3[C@@H]4CCc5cc(O)ccc5[C@H]4CC[C@]3(C)C2=O)cc1 in this test?
0.0

So what was the verdict on N#CC1(C#N)C2C=CC(c3coc4cccc2c34)C1(C#N)C#N (stereo not given) in this test?
0.0

So what was the verdict on COC(=O)[C@]12CC[C@H]3CN(C(=O)OCc4ccccc4)[C@H]([C@H]31)[C@H](C(=O)OCC[Si](C)(C)C)N2S(=O)(=O)c1ccc(C)cc1 in this test?
0.0

So what was the verdict on Cc1cc(Cl)nc(Nc2nc3ccccc3[nH]2)n1 in this test?
0.0

So what was the verdict on C[C@@]12C[C@@H](c3ccccc3O1)N1CCCCSC1=N2 in this test?
0.0

So what was the verdict on CC(C)[C@@H]1ON1C(C)c1ccccc1 (stereo not given in full) in this test?
0.0

So what was the verdict on Nc1nc2c3nc(Nc4ccccc4)sc3nc(=S)n2c2sc(Nc3ccccc3)nc12 in this test?
0.0

So what was the verdict on NC(=O)C(C(N)=O)=C(O)/C(O)=C/C(=O)c1ccccc1 in this test?
0.0

So what was the verdict on COc1ccccc1N=C(S)Nc1ccccn1 in this test?
0.0

So what was the verdict on C=CCN1CN(C2CCCCC2)CSC1=S in this test?
0.0

So what was the verdict on CC12N=NNC1C(=O)NC2=O (stereo not given) in this test?
0.0

So what was the verdict on Cc1ccc(Nc2n[nH]c(=S)s2)cc1 in this test?
0.0

So what was the verdict on CCOC(=O)Nc1nn(C)/c(=N/Cc2ccccc2)s1 in this test?
0.0

So what was the verdict on O=c1nc(-c2ccccc2)c2c3c(cccn13)CCC2 in this test?
0.0

So what was the verdict on CCCCCCCC(=O)NS(=O)(=O)c1ccccc1 in this test?
0.0

So what was the verdict on CC(C)NC(=O)OCc1c(COC(=O)NC(C)C)c(-c2cc[n+](COC(=O)CC(C)(C)C)cc2)n2c1CCC2 in this test?
0.0

So what was the verdict on CN(C)CCNC(=O)c1cccc2nc3c(nc12)-c1ccccc1C3=O in this test?
0.0

So what was the verdict on CCCCCC/C=C1\CCC(CN2CCOCC2)C1=O (stereo not given) in this test?
0.0

So what was the verdict on CC(C)C(=O)NCC[C@@H](CNC(=O)OC(C)(C)C)NC(=O)OC(C)(C)C in this test?
0.0

So what was the verdict on C=C1CC2(CCCC3(CC(=C)C(=O)O3)C2(C)C)OC1=O (stereo not given) in this test?
0.0

So what was the verdict on [N-]=[N+]=Nc1c([N+](=O)[O-])c(=O)n(-c2ccccc2)c2ccccc12 in this test?
0.0

So what was the verdict on CN(C)CCNc1ccc(CO)c2oc3ccc(O)cc3c(=O)c12 in this test?
0.0

So what was the verdict on CC[C@@]1(O)C(=O)OCc2c1cc1n(c2=O)Cc2c-1nc1ccccc1c2/C=N\NC(=O)C(N)Cc1ccc(O)cc1 (stereo not given in full) in this test?
1.0

So what was the verdict on CCCCC(=O)OC[n+]1ccc2c(C)c3[nH]c4ccccc4c3c(C)c2c1 in this test?
1.0
